# TEST PROTOCOL: PhoP regulon inhibitors, Salmonella typhi PhoP promoter GFP reporter, confirmatory (AID 1850);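 note: 0% = induced wells with vehicle and 100% = uninduced wells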
# CONDITIONS: fluorescence, 4 h, at 50 µM, hits give high values
About 1,000 (0.32%) of roughly 310,000 compounds were called active. Not all results are given here. Results with a measured potency or affinity are listed apart.
MEASURED ENDPOINT: inhibition (%)

- COMPOUND: "C/C(=N\\NC(=S)NCc1ccccc1)c1ccc(Cl)s1"
  EXPERIMENTAL RESULT: 9
- COMPOUND: "COc1cccc(/C=N/NC(=O)CN2CC(c3ccccc3)CC2=O)c1O (centres undefined)"
  EXPERIMENTAL RESULT: 3.81
- COMPOUND: "Cc1cccc(C)c1NC(=O)C[n+]1cc(-c2ccccc2)n2c1CCC2"
  EXPERIMENTAL RESULT: -8.77
- COMPOUND: "O=C(CC(=O)c1ccccc1O)c1ccc(F)cc1"
  EXPERIMENTAL RESULT: 3.76
- COMPOUND: "O=C(CCC1CCCN(C(=O)c2cccc(F)c2)C1)N1CCN(c2ccccn2)CC1 (centres undefined)"
  EXPERIMENTAL RESULT: -7.6
- COMPOUND: "CCc1ccc(-c2cc(C)no2)cc1S(=O)(=O)N1CCN(c2ccc(OC)cc2)CC1"
  EXPERIMENTAL RESULT: -6.02
- COMPOUND: "O=C1N=C2SCCN2/C1=C\\c1ccc(Cl)cc1"
  EXPERIMENTAL RESULT: 3.83
- COMPOUND: "Cc1cccc(NC(=O)CSc2nc(=O)n3ccccc3n2)c1C"
  EXPERIMENTAL RESULT: 4.11
- COMPOUND: "CCCOc1ccc(CCCN=C(N)N)cc1Cl"
  EXPERIMENTAL RESULT: 22.8
- COMPOUND: "CCOc1ccc(CSC(=N)N)cc1Cl"
  EXPERIMENTAL RESULT: 20.5
- COMPOUND: "O=C(O)C[C@H]1c2cc(F)ccc2S(=O)(=O)N1C1CCCC1"
  EXPERIMENTAL RESULT: -2.28
- COMPOUND: "Cc1cccc(C(=O)CC(=O)c2cc(Cl)ccc2O)c1"
  EXPERIMENTAL RESULT: 1.32
- COMPOUND: "Cc1ccc(NC(=O)C[n+]2cc(-c3ccccc3)n3c2CCC3)cc1"
  EXPERIMENTAL RESULT: 10
- COMPOUND: "CN(C)CC/C=C1\\c2cc(Cl)ccc2Sc2cc(F)c(F)cc21"
  EXPERIMENTAL RESULT: 10.9
- COMPOUND: "COC(=O)C1=C(N)Oc2cc(N(C)C)ccc2C1c1ccccc1OC (centres undefined)"
  EXPERIMENTAL RESULT: -7.55
- COMPOUND: "COc1cc(C(=O)N2C[C@H]3CC[C@H]2C3)ccc1OC1CCN(C(C)=O)CC1"
  EXPERIMENTAL RESULT: -7.38
- COMPOUND: "CNC(=O)C(=O)NCC1OCCN1S(=O)(=O)c1ccc([N+](=O)[O-])cc1 (centres undefined)"
  EXPERIMENTAL RESULT: 0.4
- COMPOUND: "O=C(Nc1ccccc1)N1CCCN(Cc2ccccc2F)C1"
  EXPERIMENTAL RESULT: 14
- COMPOUND: "CCCCOc1ccc(CSCCN)cc1Cl"
  EXPERIMENTAL RESULT: 12
- COMPOUND: "CCCCOc1ccc(CSC2=NCCN2)cc1[N+](=O)[O-]"
  EXPERIMENTAL RESULT: 7.52
- COMPOUND: "O=C(Cc1ccccc1)N/N=C/c1ccc(-c2ccc([N+](=O)[O-])cc2)o1"
  EXPERIMENTAL RESULT: -11.9
- COMPOUND: "Cc1ccc(C(=O)CC(=O)c2cccc(F)c2)c(O)c1"
  EXPERIMENTAL RESULT: 5.16
- COMPOUND: "Cc1ccc(-c2c[n+](CC(=O)Nc3ccccc3C)c3n2CCC3)cc1"
  EXPERIMENTAL RESULT: 5.92
- COMPOUND: "COc1ccc(C(=O)Nc2ccc(N3CCCC3)cc2)cc1"
  EXPERIMENTAL RESULT: -0.89
- COMPOUND: "CCCCCCCNC(=O)C1(CC2CC(c3ccccc3)=NO2)CCNCC1 (centres undefined)"
  EXPERIMENTAL RESULT: 19.7
- COMPOUND: "Cc1ccc(C(=O)CC(=O)c2cc(Cl)ccc2O)cc1"
  EXPERIMENTAL RESULT: -2.62
- COMPOUND: "CC1CCCCN1CCNC(=O)c1ccc2c(c1)N(Cc1cccc(Cl)c1)C(=O)c1ccccc1S2=O (centres undefined)"
  EXPERIMENTAL RESULT: -21.9
- COMPOUND: "Cc1ccc(NC(=O)C[n+]2cc(-c3ccccc3)n3c2CCC3)c(C)c1"
  EXPERIMENTAL RESULT: 19.1
- COMPOUND: "COc1ccc(N(CC(=O)N2CCN(c3cc(C)ccc3C)CC2)S(=O)(=O)c2c(C)noc2C)cc1"
  EXPERIMENTAL RESULT: 4.32
- COMPOUND: "COc1cccc(/C=N/NC(=O)CN2CC(c3ccccc3)CC2=O)c1OC (centres undefined)"
  EXPERIMENTAL RESULT: -3.73
- COMPOUND: "Cc1cc(OC(C)C(=O)N2C[C@H]3C[C@@H](C2)c2cccc(=O)n2C3)c2c(C)c(C)c(=O)oc2c1 (some centres undefined)"
  EXPERIMENTAL RESULT: -6.28
- COMPOUND: "Cc1cc(C(=O)COC(=O)c2nc3nccc(C)n3n2)c(C)n1CC1CCCO1 (centres undefined)"
  EXPERIMENTAL RESULT: -1.82
- COMPOUND: "COC(=O)C1=C(C)N(Cc2ccco2)C(=O)N[C@H]1c1ccccc1"
  EXPERIMENTAL RESULT: -5.63
- COMPOUND: "Cc1onc(-c2ccccc2Cl)c1C(=O)Nc1ccccc1C(N)=O"
  EXPERIMENTAL RESULT: 7.75
- COMPOUND: "O=C(CNc1cccc([N+](=O)[O-])c1)N/N=C/c1ccc([N+](=O)[O-])o1"
  EXPERIMENTAL RESULT: 17.3
- COMPOUND: "CCCCCCCNC(=O)C1(CC2CC(c3cccc(Br)c3)=NO2)CCN(C(=O)C2(C)CC2)CC1 (centres undefined)"
  EXPERIMENTAL RESULT: 1.2
- COMPOUND: "Cn1nnnc1SCC1=C(C(=O)O)N2C(=O)C(NC(=O)C3CC3c3ccccc3)C2SC1 (centres undefined)"
  EXPERIMENTAL RESULT: -4.57
- COMPOUND: "CCOc1ccc(CN=C(N)N=C(N)N)cc1Cl"
  EXPERIMENTAL RESULT: 20
- COMPOUND: "Cc1nc2ccccn2c1C(=O)N/N=C/c1ccc([N+](=O)[O-])cc1"
  EXPERIMENTAL RESULT: 2.94
- COMPOUND: "CN(C)CC/C=C1/c2cc(F)ccc2CSc2ccc(F)cc21"
  EXPERIMENTAL RESULT: -7.52
- COMPOUND: "O=C(Nc1ccc(Cl)cc1)N1CCCN(Cc2ccc(F)cc2)C1"
  EXPERIMENTAL RESULT: 0.26
- COMPOUND: "CN(C)CC/C=C1/c2ccccc2Sc2ccc(Cl)cc21"
  EXPERIMENTAL RESULT: 21
- COMPOUND: "CCCOc1ccc(CSC2=NCCN2)cc1[N+](=O)[O-]"
  EXPERIMENTAL RESULT: 23.3
- COMPOUND: "CO[C@@]1(NC(=O)CSCC#N)C(=O)N2C(C(=O)O)=C(CSc3nnnn3C)CS[C@@H]21"
  EXPERIMENTAL RESULT: -5.33
